experiment: qHTS assay to identify small molecule inhibitors of chordoma cells - UCH-2 (AID 1259356); conditions: UCH-2 chordoma viability, CellTiter-Glo ATP luminescence, 48 h; series mostly up to 46.1 µM; note: potency is the fitted concentration of half-maximal effect
Records with an inconclusive call do not appear. The source made the active and inactive calls. Calls come from the whole dose curve; as a rule, active = well fitted cell-killing curve with a large enough effect; inconclusive = small, poorly fitted or top-dose-only effect; inactive = flat fitted curve, though single readings scatter.
parameter measured: Potency

Ask: Which value of Potency has been reported for `C[C@]12CC[C@H](O)C[C@H]1CC[C@@H]1[C@@H]2CC[C@]2(C)[C@@H](c3ccc(=O)oc3)C[C@H]3O[C@]132` in the records?
Reply: 6.51 µM (active)

Ask: Now this one: `CCOP(=O)(OCC)O/C(=C/Cl)c1ccc(Cl)cc1Cl`
Reply: inactive

Ask: Now this one: `S=C=S`
Reply: inactive
